# system: UniProt:Q96RI0
# Sequence (Q96RI0 18-385): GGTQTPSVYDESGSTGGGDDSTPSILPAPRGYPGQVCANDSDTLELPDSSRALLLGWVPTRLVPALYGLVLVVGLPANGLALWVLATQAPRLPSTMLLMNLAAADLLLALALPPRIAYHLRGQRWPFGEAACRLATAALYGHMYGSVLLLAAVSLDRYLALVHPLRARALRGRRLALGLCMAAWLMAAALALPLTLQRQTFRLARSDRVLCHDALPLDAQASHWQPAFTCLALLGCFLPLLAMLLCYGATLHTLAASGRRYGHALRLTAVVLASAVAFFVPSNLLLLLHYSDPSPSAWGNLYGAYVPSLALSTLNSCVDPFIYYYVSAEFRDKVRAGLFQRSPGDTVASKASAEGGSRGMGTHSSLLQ
# runDescription: PAR4 FLIPR assay: antagonism of agonist-peptide-induced calcium mobilization in PAR4-expressing HEK293 cells
# conditionContext: H-Ala-Phe(4-F)-[…]NH2-induced intracellular calcium mobilization, 11-point curves
measuredMetric: IC50 (nM)
Numeric only. Scale: nM

[Q] Request body: readout IC50, system UniProt:Q96RI0, query Cc1cc(-c2nc3cc(F)c(O[C@@H](C)[C@@H](C)OC(=O)Nc4cnc(C)nc4)cc3s2)c2ncc(C(=O)NCCO)nc2c1 . Return the value.
[A] 4200

Further cases:
[Q] Request body: readout IC50, system UniProt:Q96RI0, query COc1cnc2c(-c3nc4c(C)cc(OCCOC(=O)Nc5ccnc(C)c5)cc4s3)cc(CO)cc2n1 . Return the value.
[A] 3.2

[Q] Request body: readout IC50, system UniProt:Q96RI0, query COc1cnc2c(-c3nc4c(F)c(F)c(OC)cc4s3)cc(Cl)cc2n1 . Return the value.
[A] 4.3

[Q] Request body: readout IC50, system UniProt:Q96RI0, query Cc1cc(-c2nc3c(C)cc(OCCNS(=O)(=O)c4ccc(F)c(F)c4)cc3s2)c2ncc(OC(F)F)nc2c1 . Return the value.
[A] 8.5

[Q] Request body: readout IC50, system UniProt:Q96RI0, query COc1cnc2c(-c3nc4cc(F)c(O[C@@H](C)[C@@H](C)OC(=O)Nc5cnc(C(F)(F)F)nc5)cc4s3)cc(C)cc2n1 . Return the value.
[A] 3.1

[Q] Request body: readout IC50, system UniProt:Q96RI0, query COc1cnc2c(-c3nc4c(Cl)c(F)c(OCCOC(=O)Nc5cncc(F)c5)cc4s3)cc(C)cc2n1 . Return the value.
[A] 0.7

[Q] Request body: readout IC50, system UniProt:Q96RI0, query COc1cnc2c(-c3nc4cc(F)c(O[C@@H](C)[C@@H](C)OC(=O)Nc5cncc(C)c5)cc4s3)cc(C)cc2n1 . Return the value.
[A] 2

====

Items are presented alongside their recorded pIC50.
# system: human PAR4 (Homo sapiens, UniProt Q96RI0)
# runDescription: PAR4 FLIPR assay: antagonism of agonist-peptide-induced calcium mobilization in PAR4-expressing HEK293 cells
# conditionContext: H-Ala-Phe(4-F)-[…]NH2-induced intracellular calcium mobilization, 11-point curves
Scale for pIC50: -log10 of concentration given in mol/L; no unit attached.

[Q] Fill in the blank: the reported pIC50 of COc1cnc2c(-c3cc4cccc(Cl)c4o3)cc(C)cc2n1 is ____.
[A] 7.66

[Q] Fill in the blank: the reported pIC50 of COc1cnc2c(-c3nc4cc(F)c(O[C@@H](C)[C@@H](C)OC(=O)Nc5cnc(OCC(C)(C)O)nc5)cc4s3)cc(C)cc2n1 is ____.
[A] 9.22

[Q] Fill in the blank: the reported pIC50 of COCc1cnc2c(-c3nc4c(C(O)C(C)(C)C)c(C)c(OC)cc4s3)cc(C)cc2n1 (racemic) is ____.
[A] 8.85

[Q] Fill in the blank: the reported pIC50 of COc1cnc2c(-c3nc4cc(F)c(OC[C@@H](C)OC(=O)Nc5cnc(C)nc5)nc4s3)cc(Cl)cc2c1 is ____.
[A] 8.72

[Q] Fill in the blank: the reported pIC50 of COc1cnc2c(-c3nc4c(C)c(F)c(OCCO)cc4s3)cc(C)cc2n1 is ____.
[A] 8.07

Further cases:
[Q] Fill in the blank: the reported pIC50 of COc1cnc2c(-c3nc4cc(F)c(OC[C@@H](C)OC(=O)Nc5ccc(OCCO)nc5)cc4s3)cc(C)cc2n1 is ____.
[A] 9.05

====

# system: human PAR4 (Homo sapiens)
# Sequence (Q96RI0 18-385): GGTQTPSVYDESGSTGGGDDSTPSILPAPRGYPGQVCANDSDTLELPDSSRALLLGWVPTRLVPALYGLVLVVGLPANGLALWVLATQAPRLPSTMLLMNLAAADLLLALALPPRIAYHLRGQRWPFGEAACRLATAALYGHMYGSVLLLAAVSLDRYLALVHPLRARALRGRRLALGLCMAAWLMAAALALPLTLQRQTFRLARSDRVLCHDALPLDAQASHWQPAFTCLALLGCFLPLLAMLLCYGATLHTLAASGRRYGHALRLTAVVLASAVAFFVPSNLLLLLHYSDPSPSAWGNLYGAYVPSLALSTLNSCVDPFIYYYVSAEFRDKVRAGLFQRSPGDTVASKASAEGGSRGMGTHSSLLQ
# runDescription: PAR4 FLIPR assay: antagonism of agonist-peptide-induced calcium mobilization in PAR4-expressing HEK293 cells
# conditionContext: H-Ala-Phe(4-F)-[…]NH2-induced intracellular calcium mobilization, 11-point curves
measuredMetric: IC50 (nM)
Numeric only. Scale: nM

[Q] Fill in the blank: the reported IC50 of COc1cnc2c(-c3nc4cc(F)c(O[C@@H](C)[C@@H](C)OC(=O)Nc5ccnc(C(N)=O)c5)cc4s3)cc(C)cc2n1 is ____.
[A] 0.6

[Q] Fill in the blank: the reported IC50 of COc1cnc2c(-c3nc4c(C)cc(OCCOC(=O)Nc5ccc(-c6cccs6)nc5)nc4s3)cc(C)cc2n1 is ____.
[A] 7

[Q] Fill in the blank: the reported IC50 of COc1cnc2c(-c3nc4cc(F)c(O[C@@H](C)[C@@H](C)OC(=O)Nc5ccnc(C(=O)NC[C@H](C)O)c5)cc4s3)cc(C)cc2n1 is ____.
[A] 0.4

[Q] Fill in the blank: the reported IC50 of COc1cnc2c(-c3nc4c(Cl)c(F)c(OCCOC(=O)Nc5csc(Cl)n5)cc4s3)cc(C)cc2n1 is ____.
[A] 590

[Q] Fill in the blank: the reported IC50 of COc1cnc2c(-c3nc4cc(F)c(OC[C@@H](C)OC(=O)Nc5ccc(CCO)nc5)nc4s3)cc(C)cc2n1 is ____.
[A] 0.9

[Q] Fill in the blank: the reported IC50 of COCc1cnc2c(-c3nc4c(CO)c(C)c(OC)cc4s3)cc(C)cc2n1 is ____.
[A] 0.9

[Q] Fill in the blank: the reported IC50 of COc1cnc2c(-c3nc4cc(F)c(OC[C@@H](C)OC(=O)Nc5ccc(C(=O)NC[C@H](C)O)nc5)nc4s3)cc(C)cc2n1 is ____.
[A] 2.9

[Q] Fill in the blank: the reported IC50 of COc1cnc2c(-c3nc4c(Cl)c(F)c(OC[C@@H](C)OC(=O)Nc5cnc(C)nc5)cc4s3)cc(C)cc2n1 is ____.
[A] 0.8

[Q] Fill in the blank: the reported IC50 of COc1cnc2c(-c3nc4cc(F)c(OC[C@@H](C)OC(=O)Nc5ccc(C(=O)NC[C@H](C)O)nc5)cc4s3)cc(C)cc2n1 is ____.
[A] 0.5

[Q] Fill in the blank: the reported IC50 of COc1cnc2c(-c3nc4cc(F)c(OCCOC(=O)Nc5ccc(F)nc5)cc4s3)cc(C)cc2n1 is ____.
[A] 1.5

Further cases:
[Q] Fill in the blank: the reported IC50 of COc1cnc2c(-c3nc4cc(F)c(OCC(COCC(C)C)OC(=O)Nc5cccnc5)cc4s3)cc(C)cc2n1 (centres unmarked) is ____.
[A] 1.7

[Q] Fill in the blank: the reported IC50 of [2H]C([2H])(O)c1ncc(NC(=O)O[C@H](C)[C@H](C)Oc2cc3sc(-c4cc(C)cc5nc(OC)cnc45)nc3cc2F)cn1 is ____.
[A] 5

[Q] Fill in the blank: the reported IC50 of Cc1ncc(NC(=O)O[C@H](C)[C@H](C)Oc2cc3sc(-c4cc(Cl)cc5cc(OC(F)F)cnc45)nc3cc2F)cn1 is ____.
[A] 5.6

[Q] Fill in the blank: the reported IC50 of Cc1ncc(NC(=O)O[C@H](C)[C@H](C)Oc2cc3sc(-c4cc(Cl)cc5cc(OCC(F)F)cnc45)nc3cc2F)cn1 is ____.
[A] 4.3

====

# system: human PAR4 (Homo sapiens)
# runDescription: PAR4 FLIPR assay: antagonism of agonist-peptide-induced calcium mobilization in PAR4-expressing HEK293 cells
# conditionContext: H-Ala-Phe(4-F)-[…]NH2-induced intracellular calcium mobilization, 11-point curves
measuredMetric: IC50 (nM)
Numeric only. Scale: nM

Answered examples (3):
[Q] Fill in the blank: the reported IC50 of COc1cnc2c(-c3nc4cc(F)c(OCC(COCc5ccccc5)OC(=O)Nc5cccnc5)cc4s3)cc(C)cc2n1 (centres unmarked) is ____.
[A] 2.3

[Q] Fill in the blank: the reported IC50 of COc1cnc2c(-c3nc4cc(F)c(O[C@@H](C)[C@@H](C)OC(=O)Nc5cnc(C)nc5)cc4s3)cc(OC)cc2c1 is ____.
[A] 1.1

[Q] Fill in the blank: the reported IC50 of COc1cnc2c(-c3nc4cc(F)c(O[C@@H](C)[C@@H](C)OC(=O)Nc5ccc(C(=O)NC[C@@H](C)O)nc5)cc4s3)cc(C)cc2n1 is ____.
[A] 0.9

Further cases:
[Q] Fill in the blank: the reported IC50 of COc1cnc2c(-c3nc4c(Cl)c(F)c(O[C@@H](C)[C@@H](C)OC(=O)Nc5cnc(OC[C@@H](C)O)nc5)cc4s3)cc(Cl)cc2c1 is ____.
[A] 1.3

[Q] Fill in the blank: the reported IC50 of COc1ccc2c(-c3cc4ccccc4o3)nc(C)cc2n1 is ____.
[A] 460

[Q] Fill in the blank: the reported IC50 of COc1cnc2c(-c3nc4c(Cl)c(F)c(OC[C@@H](C)OC(=O)Nc5ccc(C)nc5)cc4s3)cc(C)cc2n1 is ____.
[A] 4.3

[Q] Fill in the blank: the reported IC50 of COc1cnc2c(-c3nc4cc(F)c(O[C@@H](C)[C@@H](C)OC(=O)Nc5ccnc(OCCC(C)(C)O)c5)nc4s3)cc(Cl)cc2c1 is ____.
[A] 3.4

[Q] Fill in the blank: the reported IC50 of COc1cnc2c(-c3nc4c(C(O)C(C)(C)C)c(F)c(OC)cc4s3)cc(C)cc2n1 (centres unmarked) is ____.
[A] 10

[Q] Fill in the blank: the reported IC50 of COc1cnc2c(-c3nc4c(C)cc(OCCNS(=O)(=O)c5ccc(F)cc5)cc4s3)cc(C#N)cc2n1 is ____.
[A] 1
